pEC50 values by entry
molecular target: human M4 muscarinic acetylcholine receptor (Homo sapiens); assay: human FLIPR-based M4 PAM assay (Ca2+ mobilization, CHO-K1 cells with human M4 receptor and Gαqi5); settings: acetylcholine at 20% of maximum response, read-out: M4 PAM IP
Sequence (P08173 whole entry): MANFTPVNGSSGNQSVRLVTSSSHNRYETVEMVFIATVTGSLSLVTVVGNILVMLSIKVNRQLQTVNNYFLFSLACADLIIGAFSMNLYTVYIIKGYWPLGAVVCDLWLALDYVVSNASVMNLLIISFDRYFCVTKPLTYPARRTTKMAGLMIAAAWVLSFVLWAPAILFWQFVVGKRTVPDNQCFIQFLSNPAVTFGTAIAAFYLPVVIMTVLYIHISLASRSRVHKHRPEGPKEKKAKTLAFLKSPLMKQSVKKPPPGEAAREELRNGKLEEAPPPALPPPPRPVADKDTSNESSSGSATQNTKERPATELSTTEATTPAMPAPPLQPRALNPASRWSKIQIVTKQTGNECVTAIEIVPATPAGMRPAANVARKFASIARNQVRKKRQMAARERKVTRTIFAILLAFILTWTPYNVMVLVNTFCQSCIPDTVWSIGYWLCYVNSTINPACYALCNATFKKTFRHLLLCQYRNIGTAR
pEC50: −log10 of the molar value.

{"COMPOUND": "Cc1cc2c(nc1N1CCC(Oc3ccc(O[C@@H](C)CO)nc3)CC1)CNC2=O [Example 143A]", "MEASURED_TARGET": "human M4 muscarinic acetylcholine receptor (Homo sapiens)", "pEC50": 7.00}
{"COMPOUND": "Cc1cc2c(nc1N1CC[C@@H](Oc3ccc4c(c3)COC4)[C@H](F)C1)[C@H](CO)N(C)C2=O [Example 279A]", "MEASURED_TARGET": "human M4 muscarinic acetylcholine receptor (Homo sapiens)", "pEC50": 6.04}
{"COMPOUND": "Cc1cc2c(nc1N1CC[C@@H](OCC3(C)CC3)C(F)(F)C1)CNC2=O [Example 171A]", "MEASURED_TARGET": "human M4 muscarinic acetylcholine receptor (Homo sapiens)", "pEC50": 6.31}
{"COMPOUND": "Cc1cc2c(nc1N1CCC(Oc3ccc4c(c3)CC(=O)C4)CC1)CNC2=O", "MEASURED_TARGET": "human M4 muscarinic acetylcholine receptor (Homo sapiens)", "pEC50": 7.16}
